Target: hGLP-1R (Homo sapiens)
Sequence (P43220 24-463): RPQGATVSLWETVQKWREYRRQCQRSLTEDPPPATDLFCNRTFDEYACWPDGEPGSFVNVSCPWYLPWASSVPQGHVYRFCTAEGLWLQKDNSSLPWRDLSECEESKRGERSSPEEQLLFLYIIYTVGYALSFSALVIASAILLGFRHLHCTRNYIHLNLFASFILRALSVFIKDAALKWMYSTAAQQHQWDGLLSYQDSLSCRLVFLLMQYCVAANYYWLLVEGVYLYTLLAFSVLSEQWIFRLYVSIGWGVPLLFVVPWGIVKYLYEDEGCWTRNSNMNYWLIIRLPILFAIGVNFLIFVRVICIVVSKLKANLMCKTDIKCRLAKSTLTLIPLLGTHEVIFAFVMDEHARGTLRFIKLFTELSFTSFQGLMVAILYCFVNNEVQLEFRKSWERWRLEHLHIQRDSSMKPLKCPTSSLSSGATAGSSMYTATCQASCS
Test: Functional cAMP activity in the presence of 1% HSA
Assay type: cell-based
Conditions: read-out: cAMP Rel EC50, hGLP-1R
Starred links: 1 amine or outer side, 2 acyl side, 3 side chain; linkers in the order of their positions; H or OH if unused. Non-standard residues stand in square brackets, D forms with d. Groups on a side chain read outwards from the residue. No end group written: not given here. *: point of attachment. C20 diacid = O=C(O)CCCCCCCCCCCCCCCCCCC(=O)*; C18 diacid = O=C(O)CCCCCCCCCCCCCCCCC(=O)*; γGlu = O=C(O)[C@H](CCC(=O)[*:2])N[*:1]; αMe4Pal = C[C@](N)(Cc1ccncc1)C(=O)O; 4Pal = N[C@@H](Cc1ccncc1)C(=O)O; αMeL = CC(C)C[C@](C)(N)C(=O)O; Orn = NCCC[C@H](N)C(=O)O; AEEA = NCCOCCOCC(=O)O; Aib = CC(C)(N)C(=O)O
property name: EC50 (nM)
# unit: nM | format: bare number

Please supply the value of reported EC50 for the item Y[Aib]QGTFTSDYSI[αMeL]LDKQAAK([AEEA-AEEA-γGlu-C20 diacid])QFIEYLIA[Aib]GPSSGEPPPSEG-NH2 [Example 349]
218

Please supply the value of reported EC50 for the item H-Y[Aib]QGTFTSD[4Pal]SQ[αMeL]LDKK([γGlu-γGlu-C18 diacid])AQ[αMe4Pal]AFIE[αMe4Pal]LIE[Aib]GPSSGAPPPSGTGE-NH2 [Example 1119]
152

Please supply the value of reported EC50 for the item Y[Aib]QGTFTSDFS[Orn][αMeL]LDKK([γGlu-γGlu-C18 diacid])AQ[Aib]AFIEYLLEGGPSSGAPPPSGT-NH2 [Example 260]
160

These entries and their values trace back to patent US20240270821A1.
